target: T1, recombinant purified FRα (ECL assay calibrator) (human, UniProt P15328 25-234); experiment: ECL sandwich, FRα calibrator; capture 1C6.E12.G8; binder = detection Ab
T1 construct: Calibrator of the ECL sandwich assays; also called FRα calibrator; FRα standard
T1 sequence (P15328 25-234 limits assumed): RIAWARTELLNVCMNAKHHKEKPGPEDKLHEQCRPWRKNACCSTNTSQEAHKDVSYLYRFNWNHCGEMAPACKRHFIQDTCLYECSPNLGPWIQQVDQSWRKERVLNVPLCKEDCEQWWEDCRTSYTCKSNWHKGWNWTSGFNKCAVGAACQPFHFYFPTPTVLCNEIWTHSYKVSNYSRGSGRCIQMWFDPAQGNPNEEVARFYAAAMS
observedProperty: Specific signal at 500 pg/mL
Reply briefly: the number, and no unit.

binder="Monoclonal antibody 24H8.F3 (antibody, mouse IgG1, V domains shown, Murine IgG1 kappa from hybridoma; also called ATCC PTA-123097) VH: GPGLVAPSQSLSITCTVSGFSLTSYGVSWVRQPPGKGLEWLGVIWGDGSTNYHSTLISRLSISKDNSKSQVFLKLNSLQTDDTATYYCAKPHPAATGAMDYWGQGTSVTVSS VL: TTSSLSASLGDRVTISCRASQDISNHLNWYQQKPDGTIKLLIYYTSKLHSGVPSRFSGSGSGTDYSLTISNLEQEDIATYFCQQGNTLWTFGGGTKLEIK" observedproperty="Specific signal at 500 pg/mL" value=64
binder="Monoclonal antibody 26A9.C4 (antibody, mouse IgG1, V domains shown, Murine IgG1 kappa from hybridoma; also called ATCC PTA-123092) VH: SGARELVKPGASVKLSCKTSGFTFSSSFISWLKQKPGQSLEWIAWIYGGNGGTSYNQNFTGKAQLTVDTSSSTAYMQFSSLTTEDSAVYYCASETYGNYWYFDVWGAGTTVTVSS VL: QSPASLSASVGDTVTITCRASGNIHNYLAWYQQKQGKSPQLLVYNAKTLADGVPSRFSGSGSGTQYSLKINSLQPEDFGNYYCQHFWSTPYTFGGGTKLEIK" observedproperty="Specific signal at 500 pg/mL" value=58

Let us move to another entry and its Specific signal at 500 pg/mL.
Query: Specific signal at 500 pg/mL; subject: Monoclonal antibody 1C6.E12.G8 (antibody, mouse IgG1, V domains shown, Murine IgG1 kappa from hybridoma; also called ATCC PTA-123091) VH: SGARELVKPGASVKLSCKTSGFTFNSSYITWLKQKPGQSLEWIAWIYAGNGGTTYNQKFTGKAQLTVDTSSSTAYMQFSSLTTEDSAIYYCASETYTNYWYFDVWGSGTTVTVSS VL: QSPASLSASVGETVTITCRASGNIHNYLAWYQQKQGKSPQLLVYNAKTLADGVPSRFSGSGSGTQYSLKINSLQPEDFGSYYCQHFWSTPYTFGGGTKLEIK
86

Reference source for all entries: patent US20180148504A1
